Target: LH release from rat pituitary cells (Rattus norvegicus)
Sequence (P30969 1-327): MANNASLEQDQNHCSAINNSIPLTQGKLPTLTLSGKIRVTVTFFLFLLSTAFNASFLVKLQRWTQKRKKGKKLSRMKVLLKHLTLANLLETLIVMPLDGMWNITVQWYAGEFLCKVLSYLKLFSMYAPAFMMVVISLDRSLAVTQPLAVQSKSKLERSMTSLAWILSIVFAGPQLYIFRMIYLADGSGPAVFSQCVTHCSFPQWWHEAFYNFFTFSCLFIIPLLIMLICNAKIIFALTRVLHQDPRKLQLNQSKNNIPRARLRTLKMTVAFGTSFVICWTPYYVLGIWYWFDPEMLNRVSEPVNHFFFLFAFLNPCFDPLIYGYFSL
Assay: in vitro inhibition of LH release from rat pituitary cells (pA2)
Format: cell-based
Settings: pA2 = negative logarithm of antagonist concentration required to shift the response curve of the agonist leuprolide to two-fold higher concentration
Non-standard residues stand in square brackets, D forms with d. Residues, ends and D or L forms follow the SMILES beside them. *: point of attachment. dPhe(4-Cl) = N[C@H](Cc1ccc(Cl)cc1)C(=O)O; d2Nal = N[C@H](Cc1ccc2ccccc2c1)C(=O)O; NMeY = CN[C@@H](Cc1ccc(O)cc1)C(=O)O; d3Pal = N[C@H](Cc1cccnc1)C(=O)O; Nicotinoyl = O=C(c1cccnc1)*; NH(CH2)6NH2 = NCCCCCCN*; X6 = N=C(N)NCCCCCCCCN*; X8 = Cn1cccc1CCN*
value.kind: LHRH antagonist potency (pA2)

{"columns": ["compound", "target.entity", "value.kind", "experimental.value"],
 "data": [
  ["CC(=O)N[C@H](Cc1ccc2ccccc2c1)C(=O)N[C@H](Cc1ccc(Cl)cc1)C(=O)N[C@H](Cc1cccnc1)C(=O)N[C@@H](CO)C(=O)N(C)[C@@H](Cc1ccc(O)cc1)C(=O)N[C@H](CCCCNC(=O)c1cccnc1)C(=O)N[C@@H](CC(C)C)C(=O)NCCCCCCN [Example 5] (Ac-[d2Nal][dPhe(4-Cl)][d3Pal]S[NMeY][dK](Nicotinoyl)L-{NH(CH2)6NH2})", "LH release from rat pituitary cells (Rattus norvegicus)", "LHRH antagonist potency (pA2)", 9.91],
  ["CC(=O)N[C@H](Cc1ccc2ccccc2c1)C(=O)N[C@H](Cc1ccc(Cl)cc1)C(=O)N[C@H](Cc1cccnc1)C(=O)N[C@@H](CO)C(=O)N(C)[C@@H](Cc1ccc(O)cc1)C(=O)N[C@H](CCCCNC(=O)c1cccnc1)C(=O)N[C@@H](CC(C)C)C(=O)NCCCCCCCCNC(=N)N [Example 20] (Ac-[d2Nal][dPhe(4-Cl)][d3Pal]S[NMeY][dK](Nicotinoyl)L-X6)", "LH release from rat pituitary cells (Rattus norvegicus)", "LHRH antagonist potency (pA2)", 8.39],
  ["CC(=O)N[C@H](Cc1ccc2ccccc2c1)C(=O)N[C@H](Cc1ccc(Cl)cc1)C(=O)N[C@H](Cc1cccnc1)C(=O)N[C@@H](CO)C(=O)N(C)[C@@H](Cc1ccc(O)cc1)C(=O)N[C@H](CCCCNC(=O)c1cccnc1)C(=O)N[C@@H](CC(C)C)C(=O)NCCc1cccn1C [Example 29] (Ac-[d2Nal][dPhe(4-Cl)][d3Pal]S[NMeY][dK](Nicotinoyl)L-X8)", "LH release from rat pituitary cells (Rattus norvegicus)", "LHRH antagonist potency (pA2)", 8.30]
]}

* * *

molecular target: LH release from rat pituitary cells (Rattus norvegicus, UniProt P30969); test: in vitro inhibition of LH release from rat pituitary cells (pA2); type: cell-based; details: pA2 = negative logarithm of antagonist concentration required to shift the response curve of the agonist leuprolide to two-fold higher concentration
Non-standard residues stand in square brackets, D forms with d. Residues, ends and D or L forms follow the SMILES beside them. *: point of attachment. NH(2-pyrrolidin-1-ylethyl) = C1CCN(CCN*)C1; dPhe(4-Cl) = N[C@H](Cc1ccc(Cl)cc1)C(=O)O; NH(2-morpholinoethyl) = C(CN1CCOCC1)N*; d2Nal = N[C@H](Cc1ccc2ccccc2c1)C(=O)O; NMeY = CN[C@@H](Cc1ccc(O)cc1)C(=O)O; d3Pal = N[C@H](Cc1cccnc1)C(=O)O; Nicotinoyl = O=C(c1cccnc1)*; NH(CH2)8NH2 = NCCCCCCCCN*; Agmatine = N=C(N)NCCCCN*; NH(CH2)7NH2 = NCCCCCCCN*; X9 = CC(C)NCCCCCCCCCCN*; X10 = N=C(N)NCCCCCCN*; X12 = N=C(N)NCCCCCN*; X1 = CC1CCCCN1CCCN*; NHCH2CH2OH = OCCN*; X7 = CN1CCCC1CCN*
Let's look at some compounds and their measured LHRH antagonist potency (pA2).

{"columns": ["compound", "LHRH antagonist potency (pA2)"],
 "data": [
  ["CC(=O)N[C@H](Cc1ccc2ccccc2c1)C(=O)N[C@H](Cc1ccc(Cl)cc1)C(=O)N[C@H](Cc1cccnc1)C(=O)N[C@@H](CO)C(=O)N(C)[C@@H](Cc1ccc(O)cc1)C(=O)N[C@H](CCCCNC(=O)c1cccnc1)C(=O)N[C@@H](CC(C)C)C(=O)NCCN1CCCC1 [Example 3] (Ac-[d2Nal][dPhe(4-Cl)][d3Pal]S[NMeY][dK](Nicotinoyl)L-{NH(2-pyrrolidin-1-ylethyl)})", 11.27],
  ["CC(=O)N[C@H](Cc1ccc2ccccc2c1)C(=O)N[C@H](Cc1ccc(Cl)cc1)C(=O)N[C@H](Cc1cccnc1)C(=O)N[C@@H](CO)C(=O)N(C)[C@@H](Cc1ccc(O)cc1)C(=O)N[C@H](CCCCNC(=O)c1cccnc1)C(=O)N[C@@H](CC(C)C)C(=O)NCCCCCCNC(=N)N [Example 11] (Ac-[d2Nal][dPhe(4-Cl)][d3Pal]S[NMeY][dK](Nicotinoyl)L-X10)", 9.10],
  ["CC(=O)N[C@H](Cc1ccc2ccccc2c1)C(=O)N[C@H](Cc1ccc(Cl)cc1)C(=O)N[C@H](Cc1cccnc1)C(=O)N[C@@H](CO)C(=O)N(C)[C@@H](Cc1ccc(O)cc1)C(=O)N[C@H](CCCCNC(=O)c1cccnc1)C(=O)N[C@@H](CC(C)C)C(=O)NCCCN1CCCCC1C (stereo partly drawn) [Example 32] (Ac-[d2Nal][dPhe(4-Cl)][d3Pal]S[NMeY][dK](Nicotinoyl)L-X1)", 9.07],
  ["CC(=O)N[C@H](Cc1ccc2ccccc2c1)C(=O)N[C@H](Cc1ccc(Cl)cc1)C(=O)N[C@H](Cc1cccnc1)C(=O)N[C@@H](CO)C(=O)N(C)[C@@H](Cc1ccc(O)cc1)C(=O)N[C@H](CCCCNC(=O)c1cccnc1)C(=O)N[C@@H](CC(C)C)C(=O)NCCC1CCCN1C (stereo partly drawn) [Example 30] (Ac-[d2Nal][dPhe(4-Cl)][d3Pal]S[NMeY][dK](Nicotinoyl)L-X7)", 9.80],
  ["CC(=O)N[C@H](Cc1ccc2ccccc2c1)C(=O)N[C@H](Cc1ccc(Cl)cc1)C(=O)N[C@H](Cc1cccnc1)C(=O)N[C@@H](CO)C(=O)N(C)[C@@H](Cc1ccc(O)cc1)C(=O)N[C@H](CCCCNC(=O)c1cccnc1)C(=O)N[C@@H](CC(C)C)C(=O)NCCCCCCCCCCNC(C)C [Example 21] (Ac-[d2Nal][dPhe(4-Cl)][d3Pal]S[NMeY][dK](Nicotinoyl)L-X9)", 8.42],
  ["CC(=O)N[C@H](Cc1ccc2ccccc2c1)C(=O)N[C@H](Cc1ccc(Cl)cc1)C(=O)N[C@H](Cc1cccnc1)C(=O)N[C@@H](CO)C(=O)N(C)[C@@H](Cc1ccc(O)cc1)C(=O)N[C@H](CCCCNC(=O)c1cccnc1)C(=O)N[C@@H](CC(C)C)C(=O)NCCCCCNC(=N)N [Example 14] (Ac-[d2Nal][dPhe(4-Cl)][d3Pal]S[NMeY][dK](Nicotinoyl)L-X12)", 9.81],
  ["CC(=O)N[C@H](Cc1ccc2ccccc2c1)C(=O)N[C@H](Cc1ccc(Cl)cc1)C(=O)N[C@H](Cc1cccnc1)C(=O)N[C@@H](CO)C(=O)N(C)[C@@H](Cc1ccc(O)cc1)C(=O)N[C@H](CCCCNC(=O)c1cccnc1)C(=O)N[C@@H](CC(C)C)C(=O)NCCCCCCCCN [Example 18] (Ac-[d2Nal][dPhe(4-Cl)][d3Pal]S[NMeY][dK](Nicotinoyl)L-{NH(CH2)8NH2})", 8.48],
  ["CC(=O)N[C@H](Cc1ccc2ccccc2c1)C(=O)N[C@H](Cc1ccc(Cl)cc1)C(=O)N[C@H](Cc1cccnc1)C(=O)N[C@@H](CO)C(=O)N(C)[C@@H](Cc1ccc(O)cc1)C(=O)N[C@H](CCCCNC(=O)c1cccnc1)C(=O)N[C@@H](CC(C)C)C(=O)NCCCCNC(=N)N [Example 22] (Ac-[d2Nal][dPhe(4-Cl)][d3Pal]S[NMeY][dK](Nicotinoyl)L-Agmatine)", 10.26],
  ["CC(=O)N[C@H](Cc1ccc2ccccc2c1)C(=O)N[C@H](Cc1ccc(Cl)cc1)C(=O)N[C@H](Cc1cccnc1)C(=O)N[C@@H](CO)C(=O)N(C)[C@@H](Cc1ccc(O)cc1)C(=O)N[C@H](CCCCNC(=O)c1cccnc1)C(=O)N[C@@H](CC(C)C)C(=O)NCCN1CCOCC1 [Example 27] (Ac-[d2Nal][dPhe(4-Cl)][d3Pal]S[NMeY][dK](Nicotinoyl)L-{NH(2-morpholinoethyl)})", 8.30],
  ["CC(=O)N[C@H](Cc1ccc2ccccc2c1)C(=O)N[C@H](Cc1ccc(Cl)cc1)C(=O)N[C@H](Cc1cccnc1)C(=O)N[C@@H](CO)C(=O)N(C)[C@@H](Cc1ccc(O)cc1)C(=O)N[C@H](CCCCNC(=O)c1cccnc1)C(=O)N[C@@H](CC(C)C)C(=O)NCCCCCCCN [Example 10] (Ac-[d2Nal][dPhe(4-Cl)][d3Pal]S[NMeY][dK](Nicotinoyl)L-{NH(CH2)7NH2})", 8.76],
  ["CC(=O)N[C@H](Cc1ccc2ccccc2c1)C(=O)N[C@H](Cc1ccc(Cl)cc1)C(=O)N[C@H](Cc1cccnc1)C(=O)N[C@@H](CO)C(=O)N(C)[C@@H](Cc1ccc(O)cc1)C(=O)N[C@H](CCCCNC(=O)c1cccnc1)C(=O)N[C@@H](CC(C)C)C(=O)NCCO [Example 7] (Ac-[d2Nal][dPhe(4-Cl)][d3Pal]S[NMeY][dK](Nicotinoyl)L-NHCH2CH2OH)", 8.95]
]}
